The compounds listed here are annotated with their NanoBRET Fold Response.
STUDY_TARGET: F2RL1 (Homo sapiens)
Construct: purchased Promega (in-house HiBiT-GPCR construct library, NanoBRET)
Sequence (P55085 26-397): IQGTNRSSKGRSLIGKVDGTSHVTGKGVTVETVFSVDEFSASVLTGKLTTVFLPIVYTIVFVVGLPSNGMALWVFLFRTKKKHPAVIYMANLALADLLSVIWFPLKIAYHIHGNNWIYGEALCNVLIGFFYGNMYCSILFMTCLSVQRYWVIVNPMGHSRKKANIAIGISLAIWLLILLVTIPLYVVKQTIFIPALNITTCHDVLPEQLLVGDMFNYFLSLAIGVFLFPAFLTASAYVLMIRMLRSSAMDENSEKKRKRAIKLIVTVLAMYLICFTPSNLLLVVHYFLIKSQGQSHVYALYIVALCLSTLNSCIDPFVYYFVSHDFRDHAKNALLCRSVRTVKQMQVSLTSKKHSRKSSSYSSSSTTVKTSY
PROTOCOL_SUMMARY: NanoBRET screen HiBiT-F2RL1 in HEK293
Type: binding
EXPERIMENTAL_PARAMETERS: F2RL1; tracer 0.1μM

>  <COMPOUND>
CC(C)N(CC[C@H](c1ccccc1)c1cc(CCNC(=O)c2ccc(CNC(=O)CCc3ccc4n3[B-](F)(F)[N+]3=C(c5ccc[nH]5)C=CC3=C4)cc2)ccc1O)C(C)C

>  <NanoBRET Fold Response>
0.97

$$$$
>  <COMPOUND>
COc1ccccc1N1CCN(CCCCN2C(=O)c3ccc(CNC(=O)CCOCCOCCOCCOCCNC(=O)CCc4ccc5n4[B-](F)(F)[N+]4=C(c6ccc[nH]6)C=CC4=C5)cc3C2=O)CC1

>  <NanoBRET Fold Response>
0.96

$$$$
>  <COMPOUND>
O=C(CCc1ccc2n1[B-](F)(F)[N+]1=C(c3ccc[nH]3)C=CC1=C2)NCCOCCOCCNC(=O)OCCOCCN1CCN(C2=Nc3ccccc3Sc3ccccc32)CC1

>  <NanoBRET Fold Response>
0.88

$$$$
>  <COMPOUND>
CCCn1c(=O)c2[nH]c(-c3ccc(OCC(=O)NCCNC(=O)CCOCCNC(=O)c4ccc(CNC(=O)CCc5ccc6n5[B-](F)(F)[N+]5=C(c7ccc[nH]7)C=CC5=C6)cc4)cc3)nc2n(CCC)c1=O

>  <NanoBRET Fold Response>
1.04

$$$$
>  <COMPOUND>
Cc1nc2n(c(=O)c1CCN1CCC(c3noc4cc(F)ccc34)CC1)CCCC2OC(=O)NCCOCCOCCOCCOCCNC(=O)CCc1ccc2n1[B-](F)(F)[N+]1=C(c3ccc[nH]3)C=CC1=C2 (centres unmarked)

>  <NanoBRET Fold Response>
1.00

$$$$
>  <COMPOUND>
COc1ccccc1N1CCN(CCCCN2C(=O)c3ccc(CNC(=O)CCOCCNC(=O)c4ccc(CNC(=O)CCc5ccc6n5[B-](F)(F)[N+]5=C(c7ccc[nH]7)C=CC5=C6)cc4)cc3C2=O)CC1

>  <NanoBRET Fold Response>
0.96

$$$$
>  <COMPOUND>
Cc1cc2c(s1)Nc1ccccc1N=C2N1CCN(CCCNC(=O)CCOCCOCCOCCOCCNC(=O)CCc2ccc3n2[B-](F)(F)[N+]2=C(c4ccc[nH]4)C=CC2=C3)CC1

>  <NanoBRET Fold Response>
1.04

$$$$
>  <COMPOUND>
CC(C)N(CC[C@H](c1ccccc1)c1cc(CCNC(=O)CCOCCOCCOCCOCCNC(=O)CCc2ccc3n2[B-](F)(F)[N+]2=C(c4ccc[nH]4)C=CC2=C3)ccc1O)C(C)C

>  <NanoBRET Fold Response>
1.07

$$$$
>  <COMPOUND>
O=C(CCOCCOCCOCCOCCNC(=O)CCc1ccc2n1[B-](F)(F)[N+]1=C(c3ccc[nH]3)C=CC1=C2)NCCCN1CCN(C2=Nc3ccccc3Oc3ccc(Cl)cc32)CC1

>  <NanoBRET Fold Response>
1.12

$$$$
>  <COMPOUND>
N#CN=C(NCCCOc1cccc(CN2CCCCC2)c1)NCCNC(=O)CCOCCOCCOCCOCCNC(=O)CCc1ccc2n1[B-](F)(F)[N+]1=C(c3ccc[nH]3)C=CC1=C2

>  <NanoBRET Fold Response>
1.03

$$$$
>  <COMPOUND>
O=C(CCc1ccc2n1[B-](F)(F)[N+]1=C(c3ccc[nH]3)C=CC1=C2)NCc1ccc(C(=O)NCCOCCC(=O)N[C@@H]2CC[C@@]3(O)[C@H]4Cc5ccc(O)c6c5[C@@]3(CCN4CC3CC3)[C@H]2O6)cc1 [Naltrexone-3-NB590]

>  <NanoBRET Fold Response>
0.79

$$$$

Recorded values, source paper PMC8151276.
